# target: T1, mFc tagged human LAG3 ECD recombinant protein (human, UniProt P18627 23-450)
# T1 construct: extracellular domain; purchased from Biointron; not shown: mouse IgG Fc (mFc) tag
# T1 sequence (looked up): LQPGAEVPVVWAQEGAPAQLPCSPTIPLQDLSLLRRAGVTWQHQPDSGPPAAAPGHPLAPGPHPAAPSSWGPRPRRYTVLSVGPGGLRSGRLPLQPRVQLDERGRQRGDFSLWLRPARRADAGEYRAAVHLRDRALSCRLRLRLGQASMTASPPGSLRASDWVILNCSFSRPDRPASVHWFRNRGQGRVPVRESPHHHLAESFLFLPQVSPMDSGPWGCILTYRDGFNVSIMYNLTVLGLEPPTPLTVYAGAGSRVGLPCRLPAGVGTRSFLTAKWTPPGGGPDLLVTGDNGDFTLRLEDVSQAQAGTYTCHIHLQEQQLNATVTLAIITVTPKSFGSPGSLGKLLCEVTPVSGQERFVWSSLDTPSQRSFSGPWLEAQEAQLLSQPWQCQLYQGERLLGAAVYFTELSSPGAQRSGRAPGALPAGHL
# experiment_notes: competitive FACS: mFc tagged human LAG3 ECD binding to MHC II on Raji cells
We label by threshold. Values of %Blocking at 2 nM strictly beneath 10% are Met. Values of 10% and up are Not met.

Consider the worked cases shown below.
hu029.55 (antibody, V domains shown, humanized from 029c) VH: QVQLVESGGGLVKPGGSLRLSCAASGFTFSSYAMSWIRQAPGKGLEWVSYVTSGGDYIYYADTVKGRFTISRDDAKNSLYLQMNSLRAEDTAVYYCTRVAYDYEWYFDVWGQGTLVTVSS VL: DIQMTQSPSSVSASVGDRVTITCKASQDVTTAVAWYQQKPGKAPKLLIYSASYRYTGVPSRFSGSGSGTDFTLTISSLQPEDFATYYCQQHDSSPWTFGQGTKLEIK ... Not met
021c (antibody, human IgG4, V domains shown, human IgG4 S228P / kappa chimeric antibody; also called chimeric antibody 021; not shown: human kappa light chain constant region (pcDNA3.4-hIgGk vector)) VH: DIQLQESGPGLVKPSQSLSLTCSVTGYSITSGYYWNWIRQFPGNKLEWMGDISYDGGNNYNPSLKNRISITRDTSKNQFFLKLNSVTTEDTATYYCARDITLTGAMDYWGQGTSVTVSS VL: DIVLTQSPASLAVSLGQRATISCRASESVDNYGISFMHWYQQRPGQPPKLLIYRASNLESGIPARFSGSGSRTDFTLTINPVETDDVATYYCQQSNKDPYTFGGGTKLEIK ... Not met
hu029.40 (antibody, V domains shown, humanized from 029c) VH: QVQLVESGGGLVKPGGSLRLSCAASGFTFSSYAMSWVRQAPGKRLEWVAYVTSGGDYIYYADTVKGRFTISRDDAKNSLYLQMNSLRAEDTAMYYCTRVAYDYEWYFDVWGQGALVTVSS VL: DIQMTQSPSSVSTSVGDRVTITCKASQDVTTAVAWYQQKPGKAPKLLIYSASYRYTGVPSRFSGSGSGTDFTFTISSVQPEDFATYYCQQHDSSPWTFGQGTKLEIK ... Not met

Is it true that %Blocking at 2 nM reported for hu021.279 (antibody, V domains shown, humanized from 021c; also called hu21.279) VH: QIQLQESGPGLVKPGQTLSLTCTVSGYSITSGYYWTWIRQHPGNKLEWIGDISYDAGNNYNPSLKNRITISRDTSKNQFSLKLSSVTAEDTATYYCARDITLTGAMDYWGQGTTVTVSS VL: EIVLTQSPATLSLSPGERATLSCRASESVDNYGISFMHWYQQKPGQAPRLLIYRASNLESGIPARFSGSGSGTDFTLTISSLEPEDFAVYYCQQSNKDPYTFGQGTKLEIK is less than 10%?
Not met

Is it true that %Blocking at 2 nM reported for 029c (antibody, human IgG4, V domains shown, human IgG4 S228P / kappa chimeric antibody; also called chimeric antibody 029; not shown: human kappa light chain constant region (pcDNA3.4-hIgGk vector)) VH: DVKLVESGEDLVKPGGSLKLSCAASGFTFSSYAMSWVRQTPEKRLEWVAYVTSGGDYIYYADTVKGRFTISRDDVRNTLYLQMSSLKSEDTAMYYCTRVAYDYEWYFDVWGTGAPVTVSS VL: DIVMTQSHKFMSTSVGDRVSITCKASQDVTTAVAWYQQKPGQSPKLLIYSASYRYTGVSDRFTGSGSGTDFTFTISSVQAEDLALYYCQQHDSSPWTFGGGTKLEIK is less than 10%?
Met

Is it true that %Blocking at 2 nM reported for hu021.212 (antibody, V domains shown, humanized from 021c) VH: QVQLQESGPGLVKPSQTLSLTCTVSGYSISSGYYWNWIRQHPGNKLEWIGDISYEGGNNYNPSLKNRVTISRDTSKNQFSLKLSSVTAADTAVYYCARDITLTGAMDYWGQGTTVTVSS VL: EIVLTQSPATLSLSPGERATLSCRASESVDNYGISFMHWYQQKPGQAPRLLIYRASNLETGIPARFSGSGSRTDFTLTISSLEPEDFAVYYCQQSNKDPYTFGQGTKLEIK is less than 10%?
Met

Is it true that %Blocking at 2 nM reported for hu029.53 (antibody, V domains shown, humanized from 029c) VH: QVQLVESGGGLVKPGGSLRLSCAASGFTFSSYAMSWIRQAPGKGLEWVAYVTSGGDYIYYADTVKGRFTISRDDAKNSLYLQMNSLRAEDTAMYYCTRVAYDYEWYFDVWGQGALVTVSS VL: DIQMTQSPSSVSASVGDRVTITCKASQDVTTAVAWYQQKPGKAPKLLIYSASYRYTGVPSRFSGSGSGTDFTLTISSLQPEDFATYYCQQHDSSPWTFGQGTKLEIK is less than 10%?
Not met
